# SYSTEM_NAME: HLA-B*4001 (Homo sapiens, UniProt P01889, A65T/A93T/A95T/D138N/D98Y/E176V/E69K/N87E/Q56L/Q94N/R180L/S121R/S35A/S48T/T167S/V36M/W171L/Y33H/Y91S)
# ASSAY_EXPLANATION: biochemical
# Format: binding
# CONDITION_NOTES: B*4001
pIC50: −log10 of the molar value. No end group written: not given here.
Label scheme for pIC50: lower than 5 is Not met, 5 and above is Met.

* LDKGIKPY | Not met
* AENLYVTVF | Met
* TENLWVTVY | Not met
* ADLMGYIPL | Met
* QEKKRHVDL | Not met

Kindly determine if pIC50 recorded for YEDTGKTI is above or exactly 5.
Met

Decide: pIC50 of SEAIYTFQF >= 5?
Met

Record TEPAAVGVGAV ; criterion: pIC50 no lower than 5. Met?
Met

Is the recorded value of pIC50 equal to or greater than 5 for this sequence? AEMGKGSFKY
Met

Given the entry MDIDPYKEF , answer whether its pIC50 meets or surpasses 5.
Met

I'd appreciate it if you could say whether SEAAYAKKI has pIC50 at least equal to 5.
Met

* * *

# SYSTEM_NAME: HLA-DR DRB3*0101 (DR52) (Homo sapiens, UniProt P01903+P79483)
# ASSAY_EXPLANATION: biochemical
# Type: binding
Each entry below carries its reported pIC50.
// pIC50 is dimensionless: -log10 of concentration (M)

A selection of reference data follows.
• CSCC[C@H](NC(=O)[C@H](CCC(=O)O)NC(=O)[C@H](CCC(N)=O)NC(=O)[C@@H]1CCCN1)C(=O)N[C@@H](CCCCN)C(=O)N[C@H](C(=O)N[C@@H](Cc1ccc(O)cc1)C(=O)N[C@@H](CO)C(=O)N[C@H](C(=O)N[C@@H](CO)C(=O)N[C@@H](Cc1ccccc1)C(=O)N[C@@H](CC(=O)O)C(=O)N[C@@H](CO)C(=O)N[C@@H](CC(C)C)C(=O)N[C@@H](Cc1ccccc1)C(=O)O)C(C)C)[C@@H](C)O = 4.84
• CC[C@H](C)[C@H](NC(=O)[C@H](CO)NC(=O)[C@H](CO)NC(=O)[C@H](CC(=O)O)NC(=O)[C@H](C)NC(=O)[C@H](CC(N)=O)NC(=O)[C@@H](NC(=O)[C@H](Cc1ccc(O)cc1)NC(=O)[C@H](C)NC(=O)[C@@H](NC(=O)CNC(=O)[C@H](CCCNC(=N)N)NC(=O)[C@@H](N)CCC(=O)O)C(C)C)[C@@H](C)CC)C(=O)N[C@@H](CCC(=O)O)C(=O)NCC(=O)O = 5.16
• CSCC[C@H](NC(=O)[C@@H]1CCCN1C(=O)[C@H](CC(=O)O)NC(=O)[C@@H](N)Cc1ccc(O)cc1)C(=O)N[C@@H](Cc1ccccc1)C(=O)N[C@@H](CCCCN)C(=O)N[C@@H](Cc1ccc(O)cc1)C(=O)N[C@@H](Cc1c[nH]cn1)C(=O)N[C@@H](CC(C)C)C(=O)N[C@H](C(=O)N[C@H](C(=O)N[C@@H](C)C(=O)N[C@@H](CCC(N)=O)C(=O)N[C@H](C(=O)N[C@@H](CCCNC(=N)N)C(=O)O)C(C)C)C(C)C)[C@@H](C)O = 5.09

Find the recorded pIC50 belonging to CSCC[C@H](NC(=O)[C@H](CC(C)C)NC(=O)[C@H](CCC(N)=O)NC(=O)[C@H](CC(=O)O)NC(=O)[C@H](CC(N)=O)NC(=O)[C@H](CCSC)NC(=O)[C@H](CCSC)NC(=O)[C@H](CCCNC(=N)N)NC(=O)[C@H](CC(C)C)NC(=O)[C@@H](N)C(C)C)C(=O)N[C@@H](Cc1ccccc1)C(=O)N[C@@H](CC(C)C)C(=O)N[C@@H](CCC(=O)O)C(=O)N[C@@H](CCCNC(=N)N)C(=O)N[C@@H](C)C(=O)O and report it.
7.01

What pIC50 value was documented for this molecule, CSCC[C@H](NC(=O)CNC(=O)CNC(=O)[C@H](CCCNC(=N)N)NC(=O)[C@@H](NC(=O)[C@H](CCC(N)=O)NC(=O)[C@H](C)NC(=O)[C@@H](NC(=O)[C@@H](NC(=O)[C@H](CC(C)C)NC(=O)[C@H](Cc1c[nH]cn1)NC(=O)[C@H](Cc1ccc(O)cc1)NC(=O)[C@H](CCCCN)NC(=O)[C@H](Cc1ccccc1)NC(=O)[C@@H](N)CCSC)[C@@H](C)O)C(C)C)C(C)C)C(=O)O ?
5.44

Could you share which pIC50 value was measured for CC(C)C[C@H](NC(=O)[C@H](CCC(=O)O)NC(=O)[C@H](CCCCN)NC(=O)[C@H](C)N)C(=O)N[C@@H](CCCCN)C(=O)N[C@@H](Cc1ccccc1)C(=O)N[C@H](C(=O)N[C@H](C(=O)N[C@@H](CC(C)C)C(=O)N[C@H](C(=O)N[C@@H](Cc1ccccc1)C(=O)N[C@@H](CCCNC(=N)N)C(=O)N[C@@H](Cc1c[nH]cn1)C(=O)NCC(=O)N[C@@H](CC(=O)O)C(=O)O)C(C)C)[C@@H](C)O)C(C)C ?
5.07

Consider the molecule shown here: CC[C@H](C)[C@H](NC(=O)[C@@H](NC(=O)[C@@H](N)CO)C(C)C)C(=O)N[C@@H](CC(C)C)C(=O)N[C@@H](CC(C)C)C(=O)NCC(=O)N[C@@H](CCCNC(=N)N)C(=O)N[C@@H](Cc1c[nH]cn1)C(=O)N[C@@H](CO)C(=O)N[C@@H](CC(C)C)C(=O)N[C@@H](Cc1ccccc1)C(=O)N[C@@H](Cc1c[nH]cn1)C(=O)N1CCC[C@H]1C(=O)N[C@@H](CCC(=O)O)C(=O)N[C@@H](CC(=O)O)C(=O)O [SVILLGRHSLFHPED] What is its recorded pIC50?
4.88

Report pIC50 for CC(C)C[C@H](NC(=O)[C@H](CCC(N)=O)NC(=O)[C@H](CC(=O)O)NC(=O)[C@H](CCC(=O)O)NC(=O)[C@H](CO)NC(=O)[C@H](CC(C)C)NC(=O)[C@@H]1CCCN1C(=O)[C@@H](NC(=O)[C@@H](N)[C@@H](C)O)C(C)C)C(=O)N[C@@H](CC(C)C)C(=O)N[C@@H](Cc1ccc(O)cc1)C(=O)N[C@@H](CC(C)C)C(=O)N1CCC[C@H]1C(=O)N[C@@H](Cc1ccccc1)C(=O)N[C@@H](CCCNC(=N)N)C(=O)O please.
5.36

Sourced from patent US20060079453A1
